- System: MS2 coat protein
- assayNotes: apparent KD of MS2 coat protein; designed switch direction (-1 OFF switch, 1 ON switch): 1; higher = weaker reporter binding
- conditionInfo: input ligand: none
Some sequences, each annotated with its measured apparent KD of MS2 coat protein.

- sequence: "GGAGCCGGCCUAGGAUAUUUCAUAGAAAAACAUGAGGAUCACCCAUGUAGGCCAGAAGGCCUUGGGAAGAAGGAGGUCGGCUCC [Loop Effect - G25] (Eterna round: R96, puzzle: Same State NG 2)"
  apparent KD of MS2 coat protein (nM): 31.2
- sequence: "CACGUCUCGGUAGGAUAUGAGGUGCCAUAGGGAACAGCCUAUGGACAUGAGGAUCACCCAUGUCCUCAGAAGGGCCGGACGUGA [Leonis] (Eterna round: R96, puzzle: Same State NG 2)"
  apparent KD of MS2 coat protein (nM): 68.2
- sequence: "AGAUCAUGACGAGGAUAUGGAACAUGAGGAUCACCCAUGUAUGUUCCAUAACGCGAAUAAAGAAUCCAGAAGGCGUCGUGGUCA [Mat - Same State NG 2 - JL mod - D30] (Eterna round: R96, puzzle: Same State NG 2)"
  apparent KD of MS2 coat protein (nM): 89.1
- sequence: "GUAUCUACAGGUUGCGAUGCUCGUCUGAUACAUGAGGAUCACCCAUGUUAUAGCCCUGUGCUUGCGCAGGGCUGAUU [Sensor for hsa-mir-208a ( MOD of Tearor v.2 )] (Eterna round: R96, puzzle: Sensor for hsa-mir-208a)"
  apparent KD of MS2 coat protein (nM): 84.6
- sequence: "UUAACAUGAGGAUCACCCAUGUAUACGUAGUUUGCAUUUUGACAGGAUAUUGAAUAUCUAUAUAGCAAGAAGGGUCGUUAGUCU [JR_SSNG3_Sub007] (Eterna round: R96, puzzle: Same State NG 3)"
  apparent KD of MS2 coat protein (nM): 56.7
- sequence: "GUUACAUGAGGAUCACCCAUGUAUGUGUGGGAGUAAGUGUCUUAGGAUAUCUAUCAUUUAAUUGAAGAGAAGGAAGAUUGUUGU [JMF's solution 99] (Eterna round: R96, puzzle: Same State NG 3)"
  apparent KD of MS2 coat protein (nM): 113
- sequence: "AUUUUUUAUGCAGGAUAUGAUUAACAUGAGGAUCACCCAUGUGGUGUUGUGAGUAAGGAGAGUGAUCAGAAGGGCAUUUUUUUU [JMF's solution 68] (Eterna round: R96, puzzle: Same State NG 2)"
  apparent KD of MS2 coat protein (nM): 401
- sequence: "AGCGAACAGGCUAACAUGAGGAUCACCCAUGUGGACUCAUGUUAGGAUAUCGGGAAGGAGGAAACCGAGAAGGGACGGUGAGCC [AK SSNG3-V2-46] (Eterna round: R96, puzzle: Same State NG 3)"
  apparent KD of MS2 coat protein (nM): 30.6
- sequence: "AUUGUUAAUGCAGGAUAUGAUUAACAUGAGGAUCACCCAUGUGGUGUUGUGAGUAAGGAGAGUGAUCAGAAGGGCAUUUUUUUU [JMF's solution 31] (Eterna round: R96, puzzle: Same State NG 2)"
  apparent KD of MS2 coat protein (nM): 616
